- TEST_TARGET: α-7 nicotinic acetylcholine receptor channel expressed in HEK 293 cells (Rattus norvegicus, UniProt Q05941)
- Construct: expressed in transfected cells
- Sequence (Q05941 23-502): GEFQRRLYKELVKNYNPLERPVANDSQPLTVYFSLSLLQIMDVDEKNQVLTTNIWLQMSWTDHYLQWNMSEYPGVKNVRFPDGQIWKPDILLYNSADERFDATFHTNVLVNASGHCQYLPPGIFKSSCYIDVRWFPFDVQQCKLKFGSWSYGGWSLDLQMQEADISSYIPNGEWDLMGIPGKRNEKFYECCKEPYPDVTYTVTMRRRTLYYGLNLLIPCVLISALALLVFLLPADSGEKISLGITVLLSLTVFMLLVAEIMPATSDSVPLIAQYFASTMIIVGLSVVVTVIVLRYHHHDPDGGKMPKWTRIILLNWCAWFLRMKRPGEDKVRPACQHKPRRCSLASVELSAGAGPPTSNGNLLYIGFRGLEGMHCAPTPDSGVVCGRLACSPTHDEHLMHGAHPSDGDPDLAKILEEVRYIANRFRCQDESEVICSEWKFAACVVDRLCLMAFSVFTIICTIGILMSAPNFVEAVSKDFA
- MEASUREMENT_PROTOCOL: Ca2+-sensitive fluorescence-based FLIPR assay, α7 nicotinic ACh receptor channel function (agonist)
- Type: cell-based
- CONDITION_CONTEXT: FLIPR α7 (EC50, nM), Table 1; HEK 293 cells, agonist Ca2+ flux
// boundary case: EC50 equal to 100 nM maps to no (0); strictly smaller maps to yes (1)

INSERT INTO assay_data (compound, class_assignment) VALUES
  ('c1ccc(-c2cnc(NC3=NCC4(CN5CCC4CC5)O3)s2)cc1 (single isomer, unassigned)', 'no (0)'),
  ('COc1ccn2nc(NC3=NC[C@@]4(CN5CCC4CC5)O3)nc2c1', 'yes (1)'),
  ('COc1nc(NC2=NC[C@@]3(CN4CCC3CC4)O2)ncc1Br', 'yes (1)'),
  ('CC(=O)Nc1ccc2nc(NC3=NCC4(CN5CCC4CC5)O3)sc2c1 (stereo not shown)', 'no (0)'),
  ('Fc1cccc2[nH]nc(NC3=NC[C@@]4(CN5CCC4CC5)O3)c12', 'no (0)'),
  ('c1ccc2c(c1)OCc1cnc(NC3=NC[C@@]4(CN5CCC4CC5)O3)nc1-2', 'yes (1)'),
  ('c1ccc2[nH]c(NC3=NCC4(CN5CCC4CC5)O3)nc2c1 (single isomer, unassigned)', 'no (0)'),
  ('COCc1cc(NC2=NC[C@@]3(CN4CCC3CC4)O2)ncn1', 'no (0)'),
  ('Fc1cc2nc(NC3=NCC4(CN5CCC4CC5)O3)sc2cc1F (stereo not shown)', 'no (0)'),
  ('Brc1ccc(NC2=NC[C@@]3(CN4CCC3CC4)O2)nc1', 'yes (1)'),
  ('FC(F)(F)c1ccc2nc(NC3=NCC4(CN5CCC4CC5)O3)sc2c1 (stereo not shown)', 'no (0)'),
  ('Clc1cnc(NC2=NC[C@@]3(CN4CCC3CC4)O2)nc1', 'yes (1)'),
  ('CCOc1ccc2nc(NC3=NCC4(CN5CCC4CC5)O3)sc2c1 (single isomer, unassigned) [Example 11b]', 'no (0)'),
  ('COc1cccc(-c2cc(NC3=NC[C@@]4(CN5CCC4CC5)O3)ncn2)c1', 'yes (1)'),
  ('Clc1ccc2nc(NC3=NCC4(CN5CCC4CC5)O3)nn2c1 (stereo not shown)', 'no (0)'),
  ('Cc1nc(NC2=NC[C@@]3(CN4CCC3CC4)O2)sc1C', 'no (0)'),
  ('Fc1ccc2nc(NC3=NCC4(CN5CCC4CC5)O3)[nH]c2c1 (stereo not shown)', 'no (0)'),
  ('Brc1cnc(NC2=NC[C@@]3(CN4CCC3CC4)O2)nc1C1CC1', 'yes (1)'),
  ('COc1nccnc1NC1=NCC2(CN3CCC2CC3)O1 (racemic)', 'no (0)'),
  ('Brc1cnc(NC2=NC[C@@]3(CN4CCC3CC4)O2)nc1-c1ccccc1', 'yes (1)'),
  ('Cc1cccc2sc(NC3=NCC4(CN5CCC4CC5)O3)nc12 (single isomer, unassigned)', 'no (0)'),
  ('Cc1cc(Cl)cc2sc(NC3=NC[C@@]4(CN5CCC4CC5)O3)nc12', 'no (0)'),
  ('c1nc(NC2=NC[C@@]3(CN4CCC3CC4)O2)nc2c1CCC2', 'yes (1)'),
  ('FC(F)(F)c1cnc(NC2=NC[C@@]3(CN4CCC3CC4)O2)cn1', 'no (0)'),
  ('CC(C)(C)c1csc(NC2=NCC3(CN4CCC3CC4)O2)n1 (stereo not shown)', 'no (0)'),
  ('c1cncc(-c2ccnc(NC3=NC[C@@]4(CN5CCC4CC5)O3)n2)c1', 'yes (1)'),
  ('Cc1cc(Cl)c2nc(NC3=NCC4(CN5CCC4CC5)O3)sc2c1 (stereo not shown)', 'no (0)'),
  ('c1ccc2nc(NC3=NC[C@@]4(CN5CCC4CC5)O3)ccc2c1', 'yes (1)'),
  ('COc1ccc(-c2csc(NC3=NCC4(CN5CCC4CC5)O3)n2)cc1 (single isomer, unassigned) [Example 20b]', 'no (0)'),
  ('COc1ccc(-c2ccnc(NC3=NC[C@@]4(CN5CCC4CC5)O3)n2)cc1', 'yes (1)'),
  ('Clc1ccc2nc(NC3=NCC4(CN5CCC4CC5)O3)sc2c1 (single isomer, unassigned)', 'no (0)'),
  ('c1csc(NC2=NCC3(CN4CCC3CC4)O2)n1 (single isomer, unassigned) [Example 16a]', 'no (0)'),
  ('CC(C)c1csc(NC2=NCC3(CN4CCC3CC4)O2)n1 (single isomer, unassigned) [Example 15a]', 'no (0)'),
  ('FC(F)(F)c1ccc2nc(NC3=NCC4(CN5CCC4CC5)O3)nn2c1 (stereo not shown)', 'no (0)');

====

Reported EC50 values are given for each entry in this list.
- TEST_TARGET: α-7 nicotinic acetylcholine receptor channel expressed in HEK 293 cells (Rattus norvegicus)
- Construct: expressed in transfected cells
- MEASUREMENT_PROTOCOL: Ca2+-sensitive fluorescence-based FLIPR assay, α7 nicotinic ACh receptor channel function (agonist)
- Format: cell-based
- CONDITION_CONTEXT: FLIPR α7 activity rating (EC50, nM), Table 1; HEK 293 cells, agonist Ca2+ flux
READOUT_KIND: EC50

INSERT INTO measurements (compound, readout_kind, value_reported) VALUES
  ('FC(F)(F)c1ccc2nc(NC3=NCC4(CN5CCC4CC5)O3)nn2c1 (stereo not shown)', 'EC50', '100 to 1000 nM'),
  ('c1cc(NC2=NC[C@@]3(CN4CCC3CC4)O2)cnn1', 'EC50', '1000 to 100000 nM'),
  ('Brc1cnc(NC2=NC[C@@]3(CN4CCC3CC4)O2)nc1C1CC1', 'EC50', '< 100 nM'),
  ('COc1ccc(NC2=NCC3(CN4CCC3CC4)O2)nn1 (racemic)', 'EC50', '1000 to 100000 nM');

====

Reported EC50 values are given for each entry in this list.
- TEST_TARGET: α-7 nicotinic acetylcholine receptor channel expressed in HEK 293 cells (Rattus norvegicus)
- Construct: expressed in transfected cells
- MEASUREMENT_PROTOCOL: Ca2+-sensitive fluorescence-based FLIPR assay, α7 nicotinic ACh receptor channel function (agonist)
- Assay type: cell-based
- CONDITION_CONTEXT: FLIPR α7 activity rating (EC50, nM), Table 1; HEK 293 cells, agonist Ca2+ flux
READOUT_KIND: EC50

INSERT INTO assay_data (molecule, value_reported) VALUES
  ('FC(F)(F)c1ccc2c(NC3=NC[C@@]4(CN5CCC4CC5)O3)n[nH]c2c1', '100 to 1000 nM'),
  ('Clc1cccc2sc(NC3=NCC4(CN5CCC4CC5)O3)nc12 (single isomer, unassigned) [Example 7b]', '< 100 nM'),
  ('Cc1cccc2sc(NC3=NCC4(CN5CCC4CC5)O3)nc12 (single isomer, unassigned) [Example 6a]', '1000 to 100000 nM'),
  ('CCOc1ccc2nc(NC3=NCC4(CN5CCC4CC5)O3)sc2c1 (single isomer, unassigned) [Example 11b]', '100 to 1000 nM'),
  ('COc1ccc(-c2cnc(NC3=NC[C@@]4(CN5CCC4CC5)O3)nc2)cc1', '100 to 1000 nM'),
  ('c1cnc2sc(NC3=NC[C@@]4(CN5CCC4CC5)O3)nc2c1', '< 100 nM'),
  ('CC(=O)Nc1ccc2nc(NC3=NCC4(CN5CCC4CC5)O3)sc2c1 (stereo not shown)', '100 to 1000 nM'),
  ('Cc1oc2ncnc(NC3=NC[C@@]4(CN5CCC4CC5)O3)c2c1C', '1000 to 100000 nM'),
  ('COc1ccc(-c2ccnc(NC3=NC[C@@]4(CN5CCC4CC5)O3)n2)cc1', '< 100 nM'),
  ('COc1nc(NC2=NC[C@@]3(CN4CCC3CC4)O2)ncc1Br', '< 100 nM'),
  ('Clc1ccnc(NC2=NC[C@@]3(CN4CCC3CC4)O2)c1', '< 100 nM'),
  ('COc1ccc2nc(NC3=NC[C@@]4(CN5CCC4CC5)O3)nn2c1', '< 100 nM'),
  ('c1ccc(-c2ccc(NC3=NC[C@@]4(CN5CCC4CC5)O3)nc2)cc1', '100 to 1000 nM'),
  ('c1cncc(-c2ccnc(NC3=NC[C@@]4(CN5CCC4CC5)O3)n2)c1', '< 100 nM'),
  ('FC(F)(F)Oc1ccc2[nH]nc(NC3=NC[C@@]4(CN5CCC4CC5)O3)c2c1', '< 100 nM'),
  ('Cc1cc(C)c2c(NC3=NC[C@@]4(CN5CCC4CC5)O3)nsc2n1', '1000 to 100000 nM'),
  ('COc1cc2nc(NC3=NCC4(CN5CCC4CC5)O3)sc2cc1OC (stereo not shown)', '1000 to 100000 nM'),
  ('CC(C)c1csc(NC2=NCC3(CN4CCC3CC4)O2)n1 (single isomer, unassigned) [Example 15b]', '100 to 1000 nM'),
  ('c1csc(NC2=NCC3(CN4CCC3CC4)O2)n1 (single isomer, unassigned) [Example 16b]', '100 to 1000 nM'),
  ('Oc1ccc2nc(NC3=NCC4(CN5CCC4CC5)O3)sc2c1 (single isomer, unassigned) [Example 13b]', '< 100 nM'),
  ('c1ccc(-c2nnc(NC3=NCC4(CN5CCC4CC5)O3)s2)cc1 (stereo not shown)', '1000 to 100000 nM'),
  ('c1ccn2c(NC3=NC[C@@]4(CN5CCC4CC5)O3)nnc2c1', '1000 to 100000 nM'),
  ('COc1ccc2nc(NC3=NCC4(CN5CCC4CC5)O3)sc2n1 (racemic) [Example 2]', '100 to 1000 nM'),
  ('COc1ccc2sc(NC3=NCC4(CN5CCC4CC5)O3)nc2c1 (stereo not shown)', '1000 to 100000 nM'),
  ('c1cc2nc(NC3=NC[C@@]4(CN5CCC4CC5)O3)ccc2cn1', '< 100 nM'),
  ('Cc1nc(NC2=NCC3(CN4CCC3CC4)O2)sc1C(=O)N(C)C (stereo not shown)', '1000 to 100000 nM'),
  ('Fc1ccc2nc(NC3=NC[C@@]4(CN5CCC4CC5)O3)ccc2c1', '100 to 1000 nM'),
  ('Cc1cccn2nc(NC3=NCC4(CN5CCC4CC5)O3)nc12 (stereo not shown)', '100 to 1000 nM');

Cited source for all entries: patent US8309577B2
